Please provide measured IC50 for the entries that follow.
# target_or_test_system: Cathepsin S (Homo sapiens, UniProt P25774)
# Sequence (P25774 whole entry): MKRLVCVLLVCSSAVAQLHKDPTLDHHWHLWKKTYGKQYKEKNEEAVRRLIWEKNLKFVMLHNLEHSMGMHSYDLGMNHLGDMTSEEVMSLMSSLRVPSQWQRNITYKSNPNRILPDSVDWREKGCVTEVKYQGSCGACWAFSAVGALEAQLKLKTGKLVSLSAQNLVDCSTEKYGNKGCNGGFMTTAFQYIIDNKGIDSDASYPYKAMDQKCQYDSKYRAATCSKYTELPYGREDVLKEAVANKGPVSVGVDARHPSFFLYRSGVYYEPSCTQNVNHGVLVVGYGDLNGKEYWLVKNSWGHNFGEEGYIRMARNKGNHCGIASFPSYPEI
# experimental_protocol: Inhibition of human recombinant cathepsin S
Answers are plain numbers, in nM.

Field: example entries. Status: answers known.
Hello, I am looking for reported IC50 with Cathepsin S (Homo sapiens, UniProt P25774) for `COc1ccc(CCNC(=O)c2cnc(C#N)nc2NCC(C)(C)C)cc1OCCn1ccnc1` . Could you help?
2600

Notebook entry, Cathepsin S (Homo sapiens, UniProt P25774) assay: IC50 of `CN1CCN(c2cccc(CCNC(=O)c3cnc(C#N)nc3NCC(C)(C)C)c2)CC1` = ?
1800

# next compound below
Cathepsin S (Homo sapiens, UniProt P25774) / IC50 / `CC(C)(C)CNc1nc(C#N)ncc1C(=O)NCCc1cccc(OCCn2ccnc2)c1` : value?
510
